# target.system: T1, Staphylococcus aureus sortase A C184A mutant (residues 60-206) (Staphylococcus aureus, UniProt Q2FV99 60-206, C184A)
# T1 construct: Sortase A, Staphylococcus aureus, residues 60-206 (SrtAΔN59) with the active-site mutation C184A; Uniformly 15N-labelled for the NMR titrations; gene cloned into a PET3a vector; also called SrtA C184A; active-site mutant C184A; source: E. coli BL21 (Rosetta), purified (anion exchange, Superdex75 gel filtration)
# T1 sequence (looked up): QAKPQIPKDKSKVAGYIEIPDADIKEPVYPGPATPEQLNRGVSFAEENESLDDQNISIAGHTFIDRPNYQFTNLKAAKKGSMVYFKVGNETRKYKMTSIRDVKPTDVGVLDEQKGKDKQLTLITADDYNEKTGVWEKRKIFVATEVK
# method.summary: NMR titration; 15N-HSQC titration of the protein-Ca2+ complex at increased concentration with QALPETG-NH2; linear chemical shift changes only, far from saturation
# condition.set: both partners purified
Where no end group is shown, it is not given here.
parameter: Kd

For QALPETG-NH2 (substrate peptide with the canonical LPXTG sorting motif; also called substrate peptide; source: synthetic peptide, bought: KE Biochem Co. Ltd (China)) [QALPETG-NH2] the binder record lists Kd as > 50 mM

All figures here come from paper PMC6219580.
